Method: Acute toxicity, intraperitoneal, method of Miller and Tainter
Measurement Context: mouse, in vivo, ip, mice, read-out: Acute toxicity LD 50
Measure Name: LD50 (mg/kg)
Hi! Could you send only the number? It should be in mg/kg, unit omitted.

Give me measured LD50, please, for this compound: CCCC(CCC)(CCC)c1nn[nH]n1
280

Output measured LD50 for this item: CCCCC(C)(CC)c1nn[nH]n1 (stereo not shown)
320
